Target: soybean LOX (Glycine max, UniProt P08170)
Sequence (P08170 1-839): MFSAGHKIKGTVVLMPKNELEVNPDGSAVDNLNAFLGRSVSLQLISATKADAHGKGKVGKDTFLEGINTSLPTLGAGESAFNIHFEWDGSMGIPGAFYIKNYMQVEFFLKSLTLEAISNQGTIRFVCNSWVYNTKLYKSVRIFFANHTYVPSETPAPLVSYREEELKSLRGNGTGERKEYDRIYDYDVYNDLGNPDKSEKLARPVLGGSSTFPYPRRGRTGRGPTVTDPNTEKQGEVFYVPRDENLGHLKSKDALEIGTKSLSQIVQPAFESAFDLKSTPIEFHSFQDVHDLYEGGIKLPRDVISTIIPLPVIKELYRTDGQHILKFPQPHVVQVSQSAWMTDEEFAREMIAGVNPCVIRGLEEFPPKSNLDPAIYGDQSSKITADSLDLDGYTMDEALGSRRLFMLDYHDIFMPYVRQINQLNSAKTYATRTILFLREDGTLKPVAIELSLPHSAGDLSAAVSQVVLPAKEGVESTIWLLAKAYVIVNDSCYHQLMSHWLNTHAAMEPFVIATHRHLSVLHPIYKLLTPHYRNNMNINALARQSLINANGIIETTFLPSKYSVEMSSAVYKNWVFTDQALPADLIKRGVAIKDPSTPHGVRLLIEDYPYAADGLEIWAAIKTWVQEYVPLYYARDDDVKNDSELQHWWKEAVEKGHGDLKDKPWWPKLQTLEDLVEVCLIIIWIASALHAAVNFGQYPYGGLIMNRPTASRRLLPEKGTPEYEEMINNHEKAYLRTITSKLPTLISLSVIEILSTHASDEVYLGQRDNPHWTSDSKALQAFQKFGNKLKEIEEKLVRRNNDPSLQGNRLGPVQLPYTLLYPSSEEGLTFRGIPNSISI
value.type: IC50 (µM)

compound: [O-][N+](=CCn1cc(-c2ccccc2)nn1)Cc1ccccc1 [Nitrone 10a]
value.type: IC50
endpoint.unit: µM
observed.measurement: 85

A: [O-][N+](=CCn1cc(-c2ccc(F)cc2F)nn1)Cc1ccccc1 [Nitrone 10c]
B: [O-][N+](=CCn1cc(-c2ccc(F)cc2)nn1)Cc1ccccc1 [Nitrone 10b]
Which of the two gives a bigger number for IC50: A or B ? Please indicate the selected item by its label. B

----------
Test: Reducing activity (RA): interaction with the stable free radical DPPH
Details: 60 min, 100 µM
value.type: RA (%) 60 min
Express the result in % but write the number alone.

Below: 2 compounds and their reported RA (%) 60 min.
compound: [O-][N+](=CCn1cc(-c2ccccc2)nn1)Cc1ccccc1 [Nitrone 10a]
RA (%) 60 min: 78
--
compound: CC(Cc1ccc(O)c(O)c1)C(C)Cc1ccc(O)c(O)c1 (centres unmarked) [NDGA, nordihydroguaiaretic acid, reference compound]
RA (%) 60 min: 96

Here is another compound to look at.
Could you tell me which RA (%) 60 min is on file for Cc1cc(-c2cn(CC=[N+]([O-])Cc3ccccc3)nn2)ccc1F [Nitrone 10d] ? 79.5

----------
value.type: melting point

molecule: Cc1cc(-c2cn(CC=[N+]([O-])Cc3ccccc3)nn2)ccc1F [Nitrone 10d]
melting point: 131 to 133 °C
//
molecule: [O-][N+](=CCn1cc(-c2ccc(F)cc2)nn1)Cc1ccccc1 [Nitrone 10b]
melting point: 129 to 131 °C
//
molecule: [O-][N+](=CCn1cc(-c2ccccc2)nn1)Cc1ccccc1 [Nitrone 10a]
melting point: 134 to 136 °C

Please look at the following molecule next.
Query (molecule): [O-][N+](=CCn1cc(-c2ccc(F)cc2F)nn1)Cc1ccccc1 [Nitrone 10c] ; field requested: melting point 112 to 113 °C
